MEASUREMENT TARGET: Cathepsin D (CatD) (Homo sapiens (Human))
Sequence (P07339 65-412, species assumed): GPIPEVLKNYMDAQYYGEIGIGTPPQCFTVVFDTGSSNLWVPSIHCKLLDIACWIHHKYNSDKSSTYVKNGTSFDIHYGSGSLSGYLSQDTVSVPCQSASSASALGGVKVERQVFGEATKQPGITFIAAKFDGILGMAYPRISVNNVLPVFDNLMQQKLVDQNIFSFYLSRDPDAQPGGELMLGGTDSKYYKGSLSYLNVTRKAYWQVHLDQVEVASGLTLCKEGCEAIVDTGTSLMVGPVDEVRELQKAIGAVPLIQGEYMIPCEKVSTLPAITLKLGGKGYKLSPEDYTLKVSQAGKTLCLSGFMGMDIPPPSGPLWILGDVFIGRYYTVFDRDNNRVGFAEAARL
METHOD: CatD assay
Format: biochemical
TEST PARAMETERS: read-out: IC50 IP (μM) CatD
Returns: string. Value is label 1 if measured IC50 is below 60 µM, and label 0 if it is greater than or equal to it.

Take a look at these entries with their results.
CNC(=O)[C@]12C[C@H]1[C@@](C)(c1cc(/C=C(/F)c3ccc(Br)cn3)ccc1F)N=C(N)S2 = label 0
C[C@H]1[C@@H](F)CCN1C(=O)[C@]12C[C@H]1[C@@](C)(c1cc(/C=C(\F)c3ccc(C#N)cn3)ccc1F)N=C(N)S2 = label 1
CN(C)C(=O)[C@]12C[C@H]1[C@@](C)(c1cc(/C(F)=C/c3ccc(C#N)cc3)ccc1F)N=C(N)S2 [Example 186] = label 1
C[C@]1(c2cc(/C=C(\F)c3ccc(Cl)cn3)ccc2F)N=C(N)S[C@@]2(CC#N)C[C@H]21 = label 0
CNC(=O)[C@]12C[C@H]1[C@@](C)(c1cc(/C=C(\F)c3cnc(OCc4cnco4)cn3)ccc1F)N=C(N)S2 = label 1

Determine if CNC(=O)[C@]12C[C@H]1[C@@](C)(c1cc(/C=C(\F)c3ncc(C#N)cc3C)ccc1F)N=C(N)S2 shows IC50 strictly lower than 60 µM. label 0

Would you kindly verify if IC50 of Cc1cnc([C@]23C[C@H]2[C@@](C)(c2cc(/C=C(\F)c4ccc(C#N)cn4)ccc2F)N=C(N)S3)o1 is strictly less than 60 µM? label 0
